System: EKVX NSCLC
measurement.notes: NCI-60 one-dose screen, 48 h (100 = growth as untreated, 0 = no growth, -100 = all killed)
condition.context: 10 µM unless noted
The panel holds about 83,000 compounds, 20% with a hit somewhere; the sample as a whole holds those more often.
Parameter growth: see the listing below.

structure.notation: Cc1cccc(Cc2cnc(NC(=O)CCCOc3ccc(Cl)cc3)s2)c1
growth (%): 41.4

structure.notation: CC[C@@H]1NC(=O)[C@H]([C@H](O)[C@H](C)C/C=C/c2ccc(CN3C(=O)C(C)=C(C)C3=O)cc2)N(C)C(=O)[C@H](C(C)C)N(C)C(=O)[C@H](CC(C)C)N(C)C(=O)[C@H](CC(C)C)N(C)C(=O)[C@@H](C)NC(=O)[C@H](C)NC(=O)[C@H](CC(C)C)N(C)C(=O)[C@H](C(C)C)NC(=O)[C@H](CC(C)C)N(C)C(=O)CN(C)C1=O
growth (%): 49.1

structure.notation: ON=C1CCCCCCCC1
growth (%): 108

structure.notation: Cc1ccc(-c2nc3nc(-c4ccc(Cl)cc4)nc(N4CCCNCC4)c3o2)cc1
growth (%): 123

structure.notation: CCOC(=O)C1=C(C)N=C2SC=C(c3ccc(F)cc3)N2[C@H]1c1cn(-c2ccccc2)nc1-c1ccc(Cl)cc1
growth (%): 88.4

structure.notation: OCCN1CCN(c2cc(-c3cccc(OC(F)(F)F)c3)nc3ccc(N4CCCC4)cc23)CC1
growth (%): 75.9

structure.notation: O=C(N/N=C/c1ccc(O)cc1O)c1cccc(Nc2ccnc(C(F)(F)F)c2)c1
growth (%): 28

structure.notation: O=Nc1c(O)ccc2ccccc12
growth (%): 91.4
